# measurement.protocol: Lipophilicity, log P of the compound
# Type: physicochemical
# measurement.conditions: octanol/water
value.kind: logP

Record excerpt, results attached:
logP for C[C@H]1[C@@H](OCCCCCCCCCOC(=O)CCC(=O)O)O[C@@H]2O[C@@]3(C)CC[C@H]4[C@H](C)CC[C@@H]1[C@@]24OO3 (mixture of isomers) ?
5.53

logP for C[C@H]1[C@@H](OCCOCCOCCOC(=O)CCC(=O)O)O[C@@H]2O[C@@]3(C)CC[C@H]4[C@H](C)CC[C@@H]1[C@@]24OO3 ?
2.54

***
logP for C[C@H]1[C@@H](OCCCOC(=O)CCC(=O)O)O[C@@H]2O[C@@]3(C)CC[C@H]4[C@H](C)CC[C@@H]1[C@@]24OO3 ?
2.99

logP for C[C@H]1[C@@H](OCCCCOC(=O)CCC(=O)O)O[C@@H]2O[C@@]3(C)CC[C@H]4[C@H](C)CC[C@@H]1[C@@]24OO3 ?
3.45

logP for C[C@H]1[C@@H](OCCCCCOC(=O)CCC(=O)O)O[C@@H]2O[C@@]3(C)CC[C@H]4[C@H](C)CC[C@@H]1[C@@]24OO3 ?
3.86

logP for C[C@H]1[C@@H](OCCCCCCOC(=O)CCC(=O)O)O[C@@H]2O[C@@]3(C)CC[C@H]4[C@H](C)CC[C@@H]1[C@@]24OO3 ?
4.28

logP for C[C@H]1[C@@H](OCCCO)O[C@@H]2O[C@@]3(C)CC[C@H]4[C@H](C)CC[C@@H]1[C@@]24OO3 ?
3.1

logP for C[C@H]1[C@@H](OCCOCCOCCO)O[C@@H]2O[C@@]3(C)CC[C@H]4[C@H](C)CC[C@@H]1[C@@]24OO3 ?
2.68

logP for C[C@H]1[C@@H](OCCOCCOCCOCCOC(=O)CCC(=O)O)O[C@@H]2O[C@@]3(C)CC[C@H]4[C@H](C)CC[C@@H]1[C@@]24OO3 ?
2.42

----------
# measurement.protocol: Lipophilicity, log P of the compound
# Assay type: physicochemical
# measurement.conditions: octanol/water
Response field label takes true (1) when logP is strictly below 4 and false (0) in all other cases.

Take the compound C[C@H]1[C@@H](OCCCCO)O[C@@H]2OC3(C)CC[C@H]4[C@H](C)CC[C@@H]1[C@@]24OO3 and say whether its logP is less than 4.
true (1)

----------
# measurement.protocol: Lipophilicity, log P of the compound
# Assay type: physicochemical
# measurement.conditions: octanol/water
value.kind: logP
Hey, just send me the number, nothing else.

logP for C[C@H]1[C@@H](OCCO)O[C@@H]2O[C@@]3(C)CC[C@H]4[C@H](C)CC[C@@H]1[C@@]24OO3 ?
2.99

logP for C[C@H]1[C@@H](OCCOCCO)O[C@@H]2O[C@@]3(C)CC[C@H]4[C@H](C)CC[C@@H]1[C@@]24OO3 ?
2.83

logP for C[C@H]1[C@@H](OCCCCCCCCCCOC(=O)CCC(=O)O)O[C@@H]2O[C@@]3(C)CC[C@H]4[C@H](C)CC[C@@H]1[C@@]24OO3 ?
5.95

logP for C[C@H]1[C@@H](OCCCCCCCCO)O[C@@H]2O[C@@]3(C)CC[C@H]4[C@H](C)CC[C@@H]1[C@@]24OO3 ?
5.22

logP for C[C@H]1[C@@H](OCCCCCCCCCCCCO)O[C@@H]2O[C@@]3(C)CC[C@H]4[C@H](C)CC[C@@H]1[C@@]24OO3 ?
6.89

logP for C[C@H]1[C@@H](OCCCCCO)O[C@@H]2O[C@@]3(C)CC[C@H]4[C@H](C)CC[C@@H]1[C@@]24OO3 ?
3.97

logP for C[C@H]1[C@@H](OCCCCCCCCCCO)O[C@@H]2O[C@@]3(C)CC[C@H]4[C@H](C)CC[C@@H]1[C@@]24OO3 ?
6.05
